System: NCI-H2052 mesothelioma cell line
Experiment: Mesothelioma cell line proliferation assay, NCI-H2052
Assay type: cell-based
Conditions: Homo sapiens, NCI-H2052, 144 h, NCI-H2052, 6 days with compound, cell viability by ATPlite
parameter_measured: EC50

Query C=CC(=O)NCC1Cc2nn(Cc3cccc(C(N)=O)c3)cc2N(c2ccc(C(F)(F)F)cc2)C1 (stereo not shown) yields EC50 of < 1000 nM

Query C=CC(=O)NCC1Cc2nn(C(F)F)cc2N(c2ccc(C(F)(F)F)cc2)C1 (single isomer, unassigned) yields EC50 of < 1000 nM

Query C=C(C)C(=O)NCC1CN(c2ccc(C(F)(F)F)cc2)c2ccnn2C1 (stereo not shown) yields EC50 of > 10000 nM

Query C=CC(=O)NCC1Cc2nn(C)cc2N(c2ccc(C(F)(F)F)cc2)C1 (stereo not shown) yields EC50 of < 1000 nM

====

Assignment: determine reported EC50 for the given compounds.
System: NCI-H2052 mesothelioma cell line
Test: Mesothelioma cell line proliferation assay, NCI-H2052
Type: cell-based
Details: Homo sapiens, NCI-H2052, 144 h, NCI-H2052, 6 days with compound, cell viability by ATPlite

Query C=CC(=O)NCC1CN(c2ccc(OC(F)(F)F)cc2)c2cc(C(F)(F)F)nn2C1 (single isomer, unassigned) yields EC50 of 1 to 10 µM

Query FC(F)(F)c1ccc(N2CC(C3CC(Br)=NO3)Cn3nccc32)cc1 (single isomer, unassigned) yields EC50 of < 1 µM

Query C=CC(=O)NCC1Cc2c(cnn2C(F)F)N(c2ccc(C(F)(F)F)cc2)C1 (single isomer, unassigned) yields EC50 of < 1 µM

====

Tested on: YAP/TAZ-TEAD transcription
Assay: Reporter gene assay for measuring the inhibition of YAP/TAZ-TEAD transcription (TEAD-responsive element luciferase reporter in Hek293T cells)
Format: cell-based
Settings: Homo sapiens, HEK-293T, 24 h, Hek293T cells transiently transfected with TEAD-responsive element luciferase reporter, 24 hours incubation
Assignment: determine reported EC50 for the given compounds.

Value (EC50, YAP/TAZ-TEAD transcription) for record C=CC(=O)NCC1CN(CC#Cc2ccccc2)c2ccnn2C1 (centres unmarked) [Cpd. No. 056] = < 1 µM

Value (EC50, YAP/TAZ-TEAD transcription) for record CC(=O)N(CC#N)CC1CN(c2ccc(C(F)(F)F)cc2)c2ccnn2C1 (centres unmarked) [Cpd. No. 043] = > 20 µM

Value (EC50, YAP/TAZ-TEAD transcription) for record C=CC(=O)NC1CN(c2ccc(OC(F)(F)F)cc2)c2ccnn2C1 (centres unmarked) [Cpd. No. 063] = < 1 µM

Value (EC50, YAP/TAZ-TEAD transcription) for record C=CC(=O)NCC1CN(c2ccc(C(F)(F)F)cc2)c2cc(C(F)(F)F)nn2C1 (centres unmarked) [Cpd. No. 034] = < 1 µM

Value (EC50, YAP/TAZ-TEAD transcription) for record CN1CCC2(CN(c3ccc(C(F)(F)F)cc3)c3ccnn3C2)C1=O (single isomer, unassigned) [Cpd. No. 090-En1] = > 20 µM

Value (EC50, YAP/TAZ-TEAD transcription) for record CCC(=O)NCC1Cc2c(cnn2C)N(c2ccc(OC(F)(F)F)cc2)C1 (centres unmarked) [Cpd. No. 074] = > 20 µM

Value (EC50, YAP/TAZ-TEAD transcription) for record Cn1cc2c(n1)CC(CNS(C)(=O)=O)CN2c1ccc(OC(F)(F)F)cc1 (centres unmarked) [Cpd. No. 079] = 1 to 20 µM

Value (EC50, YAP/TAZ-TEAD transcription) for record C=CC(=O)NCC1CN(c2ccc(C(F)F)cc2)c2ccnn2C1 (centres unmarked) [Cpd. No. 009] = < 1 µM
